molecular target: hERG potassium channel (Homo sapiens); assay: hERG screening assay (PatchXpress patch clamp, CHO cells); conditions: 1 μM test cmpd
Sequence (Q12809 whole entry): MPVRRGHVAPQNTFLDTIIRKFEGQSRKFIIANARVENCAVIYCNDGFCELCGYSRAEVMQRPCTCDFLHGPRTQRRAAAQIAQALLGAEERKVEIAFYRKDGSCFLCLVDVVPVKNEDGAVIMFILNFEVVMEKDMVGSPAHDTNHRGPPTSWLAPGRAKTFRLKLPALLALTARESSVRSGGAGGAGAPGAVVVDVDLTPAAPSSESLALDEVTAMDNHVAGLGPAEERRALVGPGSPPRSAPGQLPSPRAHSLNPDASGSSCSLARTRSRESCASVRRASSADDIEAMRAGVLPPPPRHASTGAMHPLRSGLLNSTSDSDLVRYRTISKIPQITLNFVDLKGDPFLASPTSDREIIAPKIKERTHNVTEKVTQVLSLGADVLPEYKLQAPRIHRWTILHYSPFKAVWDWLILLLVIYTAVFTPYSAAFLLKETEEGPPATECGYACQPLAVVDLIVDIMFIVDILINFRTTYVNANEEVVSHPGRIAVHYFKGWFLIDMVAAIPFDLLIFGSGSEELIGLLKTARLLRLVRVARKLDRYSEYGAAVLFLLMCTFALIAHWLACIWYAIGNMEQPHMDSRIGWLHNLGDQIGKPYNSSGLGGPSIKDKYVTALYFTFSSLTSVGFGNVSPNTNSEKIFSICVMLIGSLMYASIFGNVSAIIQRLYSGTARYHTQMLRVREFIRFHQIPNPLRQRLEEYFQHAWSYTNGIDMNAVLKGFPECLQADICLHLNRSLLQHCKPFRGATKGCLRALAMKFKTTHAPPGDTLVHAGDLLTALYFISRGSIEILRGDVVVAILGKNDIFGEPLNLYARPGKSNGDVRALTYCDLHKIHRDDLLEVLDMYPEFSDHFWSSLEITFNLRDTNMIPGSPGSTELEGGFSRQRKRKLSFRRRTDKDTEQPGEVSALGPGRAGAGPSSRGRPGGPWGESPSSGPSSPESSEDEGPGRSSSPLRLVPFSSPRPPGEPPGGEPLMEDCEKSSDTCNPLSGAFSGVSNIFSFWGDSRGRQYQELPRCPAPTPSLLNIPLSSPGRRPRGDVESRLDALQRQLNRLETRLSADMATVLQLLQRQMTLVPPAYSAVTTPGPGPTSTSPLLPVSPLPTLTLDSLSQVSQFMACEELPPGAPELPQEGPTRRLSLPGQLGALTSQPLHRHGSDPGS
Measurement Type: hERG Patch Clamp hERG % blk (1 μM test cmpd) (%)
Field format: number, assumed %, no unit text.

stdin: Tell me hERG Patch Clamp hERG % blk (1 μM test cmpd) reported for CC1=C(C(=O)OCc2ccccc2)C(c2csc3ccccc23)n2nnnc2N1 (stereo not drawn) [PT-042]
stdout: 11

stdin: Tell me hERG Patch Clamp hERG % blk (1 μM test cmpd) reported for CCOC(=O)C1=C(C)Nc2nnnn2C1c1sc2ccccc2c1C (stereo not drawn) [PT-018]
stdout: 14.5

stdin: Tell me hERG Patch Clamp hERG % blk (1 μM test cmpd) reported for COc1ccc2ccccc2c1C1C(C(=O)OCc2ccccc2)=C(C)Nc2nnnn21 (stereo not drawn) [PT-030]
stdout: 10.5

The measurements presented in this section are drawn from patent US20090181986A1.
